# Test details: Metabolic stability in human liver microsomes assessed as compound remaining at 1 uM after 60 mins by LC/MS/MS analysis
# Type: ADME, Microsome
# Condition: read-out: Stability
Quantity measured: remaining at 1 h, 1 µM (%)
Field format: number, assumed %, no unit text.

Measured remaining at 1 h, 1 µM, O=C(Nc1ccc(OC(F)(F)F)cc1)N1CCC2(CC1)C[C@@H](O)c1cccc(Cl)c1O2 : 67

----------
# Assayed system: Transient receptor potential cation channel subfamily M member 8 (Homo sapiens, UniProt Q7Z2W7)
# Sequence (Q7Z2W7 whole entry): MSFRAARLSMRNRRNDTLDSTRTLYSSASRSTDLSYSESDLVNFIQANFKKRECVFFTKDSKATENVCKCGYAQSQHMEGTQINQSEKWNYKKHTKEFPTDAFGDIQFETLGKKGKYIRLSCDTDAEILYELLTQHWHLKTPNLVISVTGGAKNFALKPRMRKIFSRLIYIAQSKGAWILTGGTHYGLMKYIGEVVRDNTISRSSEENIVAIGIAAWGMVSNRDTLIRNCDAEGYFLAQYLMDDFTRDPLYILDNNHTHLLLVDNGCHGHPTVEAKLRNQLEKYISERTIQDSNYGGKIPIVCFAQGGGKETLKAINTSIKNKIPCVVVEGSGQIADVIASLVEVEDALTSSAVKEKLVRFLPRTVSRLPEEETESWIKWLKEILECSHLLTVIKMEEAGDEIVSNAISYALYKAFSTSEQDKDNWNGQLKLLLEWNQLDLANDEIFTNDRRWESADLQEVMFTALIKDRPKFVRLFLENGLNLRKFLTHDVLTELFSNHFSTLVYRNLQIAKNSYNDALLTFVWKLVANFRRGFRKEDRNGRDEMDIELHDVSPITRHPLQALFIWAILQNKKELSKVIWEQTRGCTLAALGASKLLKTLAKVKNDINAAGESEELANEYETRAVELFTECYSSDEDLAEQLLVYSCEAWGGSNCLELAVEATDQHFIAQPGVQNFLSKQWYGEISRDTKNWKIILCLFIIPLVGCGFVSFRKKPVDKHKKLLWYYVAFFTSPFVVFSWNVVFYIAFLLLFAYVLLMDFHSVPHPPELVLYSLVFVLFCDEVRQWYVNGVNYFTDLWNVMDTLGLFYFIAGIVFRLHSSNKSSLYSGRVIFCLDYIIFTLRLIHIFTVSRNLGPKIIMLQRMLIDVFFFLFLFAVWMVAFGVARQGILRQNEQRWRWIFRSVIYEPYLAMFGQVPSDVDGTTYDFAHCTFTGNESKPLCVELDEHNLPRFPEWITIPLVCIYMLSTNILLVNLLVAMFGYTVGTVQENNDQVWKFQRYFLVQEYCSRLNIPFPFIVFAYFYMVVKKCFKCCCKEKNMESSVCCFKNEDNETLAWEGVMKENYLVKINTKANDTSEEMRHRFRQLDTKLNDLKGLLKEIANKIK
# Test details: Antagonist activity at human TRPM8 expressed in CHO cells assessed as inhibition of icilin-induced 45Ca2+ uptake incubated for 10 mins prior to icilin-challenge measured after 4 mins by liquid scintillation counting analysis
# Format: cell-based
Quantity measured: pIC50
Friendly reminder that pIC50 comes from taking -log10 of the concentration in mol/L.

Measured pIC50, O=C1CC2(CCN(C(=O)Nc3ccc(OC(F)(F)F)cc3)CC2)Oc2c(Cl)cccc21 : 6.95

Measured pIC50, O=C(Nc1ccc(C(F)(F)F)cc1)N1CCC2(CCc3cccc(F)c3O2)CC1 : 7.01

Measured pIC50, O=C(Nc1ccc(C(F)(F)F)cc1)N1CCC2(CC1)CC(O)c1cccc(F)c1O2 (racemic) : 7.05

Measured pIC50, O=C(Nc1ccc(C(F)(F)F)cc1)N1CCC2(CC1)CC(O)c1cccc(Cl)c1O2 (racemic) : 7.18

Measured pIC50, O=C(Nc1nc2ccc(F)cc2s1)N1CCC2(CCc3cccc(Cl)c3O2)CC1 : 6.95

Measured pIC50, O=C(Nc1ccc(OC(F)(F)F)cc1)N1CCC2(CC1)C[C@H](O)c1cccc(F)c1O2 : 7.03

Measured pIC50, O=C1CC2(CCN(C(=O)Nc3ccc(OC(F)(F)F)cc3)CC2)Oc2c(Br)cccc21 : 6.97
